koff by entry:
assay system: T1, recombinant His-tagged human PD-1 (Acro Biosystems) (human, UniProt Q15116 25-167)
T1 construct: His-tagged; also called hPD-1
T1 sequence (Q15116 25-167 limits assumed): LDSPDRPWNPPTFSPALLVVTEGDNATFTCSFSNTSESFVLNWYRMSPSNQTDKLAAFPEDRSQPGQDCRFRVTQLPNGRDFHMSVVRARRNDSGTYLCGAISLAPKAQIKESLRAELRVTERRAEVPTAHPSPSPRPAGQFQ
protocol text: SPR Carterra LSA;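 further: antibodies or fusion proteins amine-coupled on an HC30M chip, soluble His-tagged human or cynomolgus PD-1 titrated over them, non-regenerative kinetics, constants fitted from titration curves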
parameter: koff (s⁻¹)

# binder, unit text, reported value
records = [
    ("Anti-PD-1 clone J110 hIgG1 (antibody, V domains shown) VH: DVQLQESGPGLVKPSQSLSLTCTVTGHSITSDYAWNWIRQFPGDKLEWMGYISYSGYTTYNPSLKSRVSITRDTSKNQFFLQLNSVTTEDTATYFCARDLDYGPWFAYWGQGTLVTVSA VL: DIQMTQSPASLSASVGETVTLTCRASENIHNYLAWYQQKQGKSPQLLVYNVKTLADGVPSRFSGSGSGTQYSLKINSLQPEDFGSYYCQHFWSSPWTFGGGTKVEIKR", "s⁻¹", 0.001),
    ("OMC476pE4-hIgG4 (antibody, V domains shown) VH: DVQLVESGGGVVRPGESLRLSCAASGFTFSTDAMGWVRQAPGEGLEWVSLISGSGYSTYYADSVKGRFTISRDNSKNTLYLQMNSLTAEDTAVYYCAKNSLAFFDYWGLGTLVTVSS VL: QSVLTQPPSASGTPGQRVTISCSGGSSNIGRESVNWYQQLPGTAPKLLIYSTDRRPSGVPDRFSGSKSGTSASLAISGLQSEDEADYYCGTWDNDLNGWVFGGGTKLTVLG", "s⁻¹", 0.00088),
    ("G12-hIgG4 (antibody, V domains shown) VH: DSLVESGGGLVQPGGSLRLSCAASGFTFDISAMSWVRQAPGKGLEWVSTISGSAYSTYYADSVKGRFTISRDNSKSTLYLQMNSLRAEDTAVYYCAREIFSDYWGLGTLVTVSS VL: QSVLTQPPSASGTPGQRVTISCSGSTSNIGRESVYWYQQLPGTAPKLLIYLNSQRPSGVPDRFSGSKSGTSASLAISGLQSEDVADYYCGTWDDSLNGWVFGGGTKLTVLG", "s⁻¹", 0.0026),
    ("A2-hIgG4 (antibody, V domains shown) VH: DVQLVESGGGLVQPGGSLRLSCAASGFTFDISAMSWVRQAPGKGLEWVSTISGSAYSTYYADSVKGRFTISRDNSKSTLYLQMNSLRAEDTAVYYCAREIFSDYWGLGTLVTVSS VL: QSVLTQPPSASGTPGQRVTISCSGSTSNIGRESVYWYQQLPGTAPKLLIYSNVQRPSGAPNRFSGSKSGTSASLAISGLQSEDEADYYCGTWDDSLNGWVFGGGTKLTVLG", "s⁻¹", 0.0013),
    ("Abz1mod-hIgG4 (antibody, V domains shown) VH: QVQLVQSGSELKKPGASVKVSCKASGYTFTSYAMHWVRQAPGQGLEWMGYISPFTGRATYAQGFTGRFVFSLDTSVSTAYLQISSLKAEDTAVYYCARDYDYRYYYAMDYWGQGTTVTVSS VL: EIVLTQSPDFQSVTPKEKVTITCRASQSIPPQFLHWYQQKPDQSPKLLIKAASQRASGVPSRFSGSGSGTDFTLTINSLEAEDAATYYCHQFHSSPLTFGGGTKLEIKR", "s⁻¹", "6e-05"),
]

Entry source: patent US20240076343A1
